These measurements were taken from ChEMBL document CHEMBL1201862.

test system: MOLT-4; assay: NCI tumour cell line growth inhibition, 48 h
Activity calls are given as the source filed them. Cut-off read from the data, not from the text of the source: active = GI50 up to about 1.1 µM and inactive = higher.
Pick one: 1 = active, 0 = inactive

Can you look up the reported call for `COC1=CC(=O)c2c(c(COP(=O)(N(C)CCBr)N(C)CCBr)cn2C)C1=O` for me? 1

Please do the same for CCN1CC(C)Cn2c(=O)[nH]c3cc(Br)cc1c32 (centres undefined) as well. 0

# iterate: CCOC(=O)[C@@]12C[C@](/C=C/OC)(O[Si](C)(C)C)[C@@]13c1cc(OC)c(OC)cc1CCN3C(=O)C2O (some centres undefined) 0

Would you mind doing `C=C1C(=O)O[C@H]2[C@H]3O[C@@H](C[C@@H]12)[C@@]1(C)CC[C@H](O1)C(C)=CCC[C@H]3C` as well? 0

Here is the next compound: CCC1CCc2c(c(=O)oc3c2cc(OC)c2cccc(OC)c23)C1 (centres undefined) 0

Okay, and COc1cccc2c1OCC1Cc3ccccc3OC21 (centres undefined) ? 0

Repeat for the following compound: COc1ccc(-c2cc(-c3ccc(C)cc3)n(C3OC(COC(C)=O)C(OC(C)=O)C(OC(C)=O)C3OC(C)=O)c(=S)c2C#N)cc1 (centres undefined) 0

Request: COc1cc2c(c(O)c1OC)C(=O)[C@@H]1CCC(=O)N1C2c1ccccc1 (some centres undefined) 0

`COC(=O)c1cn(CCCC(=O)O)nn1` ? 0

----------
test system: KM12; test: NCI tumour cell line growth inhibition, 48 h
The source made the active and inactive calls. Cut-off read from the data, not from the text of the source: active = GI50 up to about 1.1 µM and inactive = higher.
The reply should be one of these categories: active, inactive

Assay outcome for `N#CCCN(CCCN(C(=O)N(c1ccccc1)c1ccccc1)c1ccccc1)C(=O)Nc1ccccc1` : what was it? inactive

One more compound: `CCCCOCCOCCOC1=CC(=O)c2c(O)ccc(O)c2C1=O` inactive

// next record CCCC1C(=O)Nc2cccc3ncn(c23)C1=O (stereo not given) inactive

Would you mind doing `NS(=O)(=O)c1c(O)c2ccccc2oc1=O` as well? inactive

And then COC(=O)C1C(=O)N(CCc2c[nH]c3ccccc23)C[C@@H]2CCC(=O)C[C@H]12 (stereo not given in full) , what is it? inactive

Check `N=C(N)NS(=O)(=O)c1ccc(Nc2c3ccccc3nc3c(C(=O)NNCCO)cccc23)cc1` too. active

And then CC1CC2C3CC(F)C4=CC(=O)C=CC4(C)C3(F)C(O)CC2(C)C1(O)C(=O)CO (stereo not given) , what is it? inactive

Another compound to look at: O=C(CC(=O)N1N=C(c2ccccc2)C(/N=N/c2ccc(Cl)cc2)C1=O)Nc1ccccc1Cl (stereo not given) inactive

What do you get for `CSc1nc(SC)c2c(C)c(Br)[nH]c2n1` ? inactive

Same again, this time with `NC(=O)C(=Cn1c(=S)[nH]c2ccc([N+](=O)[O-])cc21)C(N)=O` inactive

----------
test system: HL-60; assay: NCI tumour cell line growth inhibition, 48 h
Calls of active or inactive are those of the source. No stated cut-off is given here; in the data, active = GI50 up to about 1.1 µM and inactive = higher.
Give measured GI50 for each item. Keep answers brief.

What value of GI50 has been reported for the following compound? `CC1=NN(C(=O)c2ccc(Cl)cc2)C(=O)/C1=C/c1ccccc1O` > 100 µM (inactive)

Cc1ccc(NC(=O)CC2SC(=N)NC2=O)cc1C (stereo unspecified) ? > 100 µM (inactive)

Now consider Sc1ncnc2nc[nH]c12 [MERCAPTOPURINE ANHYDROUS] and answer again. 2.44 µM (inactive)

What about N[C@@H](CCC(=O)NC(Cc1ccccc1)C(=O)NCP(=O)(O)O)C(=O)O (stereo partly specified) ? > 100 µM (inactive)

Please give the result for CC1(C)CCOC(Sc2ccccc2)C1 (stereo unspecified) too. 10.5 µM (inactive)

// next record `O=C(NCCN1CCCC1)c1cn2c(ccc3sc4ccccc4c(=O)c32)n1` 5.61 µM (inactive)

// query: `O=C(CO[N+](=O)[O-])OC/C=C/c1ccccc1` 22.1 µM (inactive)

// next record `Cc1nc(O)nc2nc3ccc(Cl)cc3c(NCCNCCO)c12` 90.4 µM (inactive)

Same question for `CCN(CC)CCN1C(=O)c2cccc3cc(N)cc(c23)C1=O` please. 16.6 µM (inactive)

Also `CCOC(=O)c1c(NS(=O)(=O)c2ccc(Br)cc2)sc2c1CCCC2` , if possible. 6.18 µM (inactive)

// query: `COC(=O)c1c/c(=N\NC(=O)CC(=O)Nc2ccccc2OC)c2ccccc2o1` > 100 µM (inactive)

----------
Consider the following molecules; for each one, report its GI50.
tested on: NCI-H522; experiment: NCI tumour cell line growth inhibition, 48 h
Calls of active or inactive are those of the source. Cut-off read from the data, not from the text of the source: active = GI50 up to about 1.1 µM and inactive = higher.

Query the reported GI50 for NCI-H522; item: `COc1ccc(C[N+](C)(C)N)cc1OC` > 10 µM (inactive)

Try this molecule next: `CC/C(=N/O)c1ccc(Br)s1` > 100 µM (inactive)

Next up: `COc1ccc2c(C(=O)c3cn(CCN4CCOCC4)c4ccccc34)cccc2c1` 6.65 µM (inactive)

# repeat for `CCOC(=O)c1c(CN2CCCC2)n(-c2ccccc2)c2cc(Br)c(O)cc12` 17.1 µM (inactive)

Ok, now CC(=N)OC1CC2CCC1(C)C2(C)C (stereo unspecified) > 100 µM (inactive)

Then what about the molecule `CN1CCN(CCCCN2c3ccccc3Sc3ccc(N=[N+]=[N-])cc32)CC1` ? 5.01 µM (inactive)

----------
test system: HOP-92; test: NCI tumour cell line growth inhibition, 48 h
Calls of active or inactive are those of the source. Cut-off read from the data, not from the text of the source: active = GI50 up to about 1.1 µM and inactive = higher. Non-standard residues stand in square brackets, D forms with d. Residues, ends and D or L forms follow the SMILES beside them. *: point of attachment. Bn2Val = CC(C)[C@@H](C(=O)*)N(Cc1ccccc1)Cc1ccccc1; NH(4-Cl-benzyl) = Clc1ccc(CN*)cc1; NMeV = CN[C@H](C(=O)O)C(C)C; dNMeA = CN[C@H](C)C(=O)O
One label from this list, please: active, inactive

Field: outcome | Entry: `NCCP(=O)(O)O` inactive

Now the molecule COC(=O)C1C(=O)N(CCc2c[nH]c3ccccc23)C[C@@H]2CCC(=O)C[C@H]12 (stereo partly drawn) inactive

What do you have for `CSC(SC)=C(C(=O)c1ccc(Cl)cc1)n1c(=O)sc2cc(Br)ccc21` ? inactive

One more molecule: `Cc1ccc(C(=O)Oc2ccc(/C=C3\CCC/C(=C\c4ccc(OC(=O)c5ccc(C)cc5)cc4)C3=O)cc2)cc1` inactive

Similarly, `COCc1nc2c(OC)c(-c3nc4ccc(N5CCN(C)CC5)nc4[nH]3)cc(OC)c2[nH]1` ? inactive

Here is the next molecule: `Nc1nc(Cl)c(N)c(NCC2(CO)CCC2)n1` inactive

Subsequent entry: C[N+](C)(C)c1ccc(C(N)C(=O)O)cc1 (stereo not drawn) inactive

// same read-out, input: `S=C(Nc1ccc(Cl)cc1)SC1CCCCC1` inactive

Lookup `COc1cc([C@H]2Oc3cc(O)c4c(=O)cc(-c5ccccc5)oc4c3O[C@@H]2CO)ccc1O` inactive

Also need `N=C(N)NS(=O)(=O)c1ccc(Nc2c3ccccc3nc3c(C(=O)NNCCO)cccc23)cc1` , thanks. active

And what about the molecule `NCCNc1ncnc2ccc(Cl)cc12` ? inactive

Let us now turn to CC(C)[C@H](NC(=O)[C@H](C(C)C)N(Cc1ccccc1)Cc1ccccc1)C(=O)N(C)[C@H](C(=O)N1CCC[C@H]1C(=O)N(C)[C@H](C)C(=O)NCc1ccc(Cl)cc1)C(C)C (Bn2Val-V[NMeV]P[dNMeA]-{NH(4-Cl-benzyl)}) inactive

Query COC(=O)C1=C(C)C(=O)[C@]23C(CCCC[C@H]12)C(=O)[C@H](C(=O)OC)C3C (stereo partly drawn) next inactive

Proceed to `CCOC(=O)c1cn(C)c(=S)n2c1nc1ccccc12` inactive

Now the molecule `CN(C)/C=N/c1nc2ncn(CCOC(=O)c3ccccc3)c2c(=O)[nH]1` inactive

Then what about the molecule `C=C(Cl)c1c(OC)cccc1OCc1ccccc1` ? inactive

Cool, now `NC(=O)ON=C1CCN(Cc2ccccc2)CC1` inactive

Cool, now `Cn1c(=O)c2c(O)cc(N)nc2n(C)c1=O` inactive

Entry `COc1ccc2cc(Oc3ccc(Cl)cc3)c(=O)oc2c1` please inactive

Consider next the molecule `CC(=O)NC1=C(NCCC(C)C)C(=O)c2ccccc2C1=O` in the same way. inactive

Can you check CC(C)OC1OC(CO)C(O)CC1n1cc(F)c(=O)[nH]c1=O (stereo not drawn) next? inactive

Input `c1ccc(C[P+]2(c3ccccc3)c3ccccc3-c3ccccc32)cc1` inactive

Same thing, different molecule: `Nc1ccc(Oc2ccc(C34CC5CC(C3)CC(c3ccc(Oc6ccc(N)c(O)c6)cc3)(C5)C4)cc2)cc1O` inactive

Now give it for `CN1Cc2c(nc(-c3ccc(Br)cc3)c[n+]2[O-])N(C)C1` too. inactive

Entry to check: COC(=O)/C(=N\NC(N)=O)C(C(=O)C(=O)Nc1ccccc1OC)c1nc2ccc([N+](=O)[O-])cc2nc1O (stereo not drawn) inactive

Another molecule to look at: `COc1ccc2[nH]c3c(C)cc([N+](=O)[O-])c(C)c3c2c1` inactive

Similarly, CC(=N)OC1CC2CCC1(C)C2(C)C (stereo not drawn) ? inactive

Now the same for `O=C(O)CSc1nnc(COc2ccccc2)n1-c1ccccc1` inactive

Item: `CCOC(=O)Oc1cc2c(ccn2C)c2c1c1ccccc1n2C(=O)OCC` inactive

Repeat with `C=C1C(=O)O[C@H]2[C@H]3O[C@@H](C[C@@H]12)[C@@]1(C)CC[C@H](O1)C(C)=CCC[C@H]3C` inactive

Same question for `CN(C)CCNC(=O)Cn1ccc(=O)c2cc([N+](=O)[O-])ccc21` please. inactive

Same question, `Clc1ccc(-c2nn3c(CCCCCCCCc4nnc5sc(-c6ccc(Cl)cc6)nn45)nnc3s2)cc1` this time inactive

// same read-out, input: `N=C(N)n1ncc(Cl)c(Cl)c1=O` inactive

And then Nc1ncnc2c1cnn2Cc1cn(COCC(O)CO)nn1 (stereo not drawn) , what is it? inactive

Would you kindly repeat that for `O=C1C=C(NCCc2ccc(O)cc2)C(=O)C=C1NCCc1ccc(O)cc1` ? inactive

Another: CCOC(=O)C1N(S(=O)(=O)c2ccc(C)cc2)CCC12c1ccccc1N(C(C)=O)C2C(/C=C/C(=O)OC)=C/C(=O)OC (stereo not drawn) inactive

Also `c1ccc(/C(=N/Nc2ccccn2)c2ncccn2)cc1` , if possible. inactive

Try this molecule next: COc1ccc(C2c3cc(OC)c(OC)cc3C(Cc3ccc([N+](=O)[O-])cc3)C2c2ccc([N+](=O)[O-])cc2)cc1OC (stereo not drawn) active

// next record `COC(=O)c1ccc(OCc2ccc3nc(-c4ccccc4)c(Cl)nc3c2)cc1` inactive

Field entry: `Cn1nc2c(c1N)Cc1c(nn(C)c1N)-c1ccccc1-2` inactive

Please do the same for CC(=O)Oc1c(C)c2c(c3ncccc13)OC(C)C2 (stereo not drawn) as well. inactive

Now consider `CCCCOCCOCCOC1=CC(=O)c2c(O)ccc(O)c2C1=O` . inactive

Subsequent entry: `Nc1nc(N)c(NC(=O)CCCO)c(=O)[nH]1` inactive
